Assay: Probe fluorescence ratio response to arachidonic acid relative to ADIFAB2
Format: binding
Conditions: arachidonic acid; response relative to ADIFAB2

[
  {
    "MOLECULE": "36L, 72A wt (protein, listed as Rattus norvegicus, PEPTIDE (1)...(131) wild-type rat intestinal fatty acid binding protein) AFDGTWKVDRNENYEKFMEKMGINVVKRKLGAHDNLKLTITQEGNKFTVKESSNFRNIDVVFELGVDFAYSAADGTELTGTWTMEGNKLVGKFKRVDNGKELIAVREISGNELIQTYTYEGVEAKRIFKKE",
    "DR/DR AA": 1.25
  },
  {
    "MOLECULE": "38Y 117A 72A (protein, listed as Rattus norvegicus, PEPTIDE (1)...(131) wild-type rat intestinal fatty acid binding protein) AFDGTWKVDRNENYEKFMEKMGINVVKRKLGAHDNLKYTITQEGNKFTVKESSNFRNIDVVFELGVDFAYSAADGTELTGTWTMEGNKLVGKFKRVDNGKELIAVREISGNELIQTATYEGVEAKRIFKKE",
    "DR/DR AA": 2.216
  },
  {
    "MOLECULE": "93L, 72A (protein, listed as Rattus norvegicus, PEPTIDE (1)...(131) wild-type rat intestinal fatty acid binding protein) AFDGTWKVDRNENYEKFMEKMGINVVKRKLGAHDNLKLTITQEGNKFTVKESSNFRNIDVVFELGVDFAYSAADGTELTGTWTMEGNKLVGKLKRVDNGKELIAVREISGNELIQTYTYEGVEAKRIFKKE",
    "DR/DR AA": 0.680
  }
]
